Origin of the recorded values: patent US20230374132A1

# TESTED ON: T1, human CD3 E&D complex protein (Sino Biological Inc., CT026H0323H) (human, UniProt P07766 23-126; P04234 22-105)
# T1 construct: bought heterodimer; also called human CD3 protein (CT026H0323H)
# T1 sequence (P07766 23-126, chain 1 of 2): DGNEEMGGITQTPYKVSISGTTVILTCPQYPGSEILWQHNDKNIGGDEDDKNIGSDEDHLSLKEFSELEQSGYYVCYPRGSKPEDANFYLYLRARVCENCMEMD
# T1 sequence (P04234 22-105, chain 2 of 2): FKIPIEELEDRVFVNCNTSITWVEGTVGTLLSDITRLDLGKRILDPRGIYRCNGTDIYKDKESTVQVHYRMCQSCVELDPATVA
# ASSAY METHOD TEXT: BLI, antibody on sensor
# reported Kd; entries follow
METRIC NAME: Kd (nM)

INSERT INTO measurements (binder, metric_name, unit_tag, value_reported) VALUES
  ('hzsp34.100 (antibody, human IgG1, lambda, L234A L235A, V domains shown, CDR mutant of hzsp34.24; IgG1 L234A L235A, lambda) VH: EVQLVESGGGLVQPGGSLKLSCAASGFTFNTYAMNWVRQASGKGLEWVGRIRSKYNNYATYYADSVKDRFTISRDDSKSTLYLQMNSLKTEDTAVYYCARHGNFGGRYVSWFAYWGQGTTVTVSS VL: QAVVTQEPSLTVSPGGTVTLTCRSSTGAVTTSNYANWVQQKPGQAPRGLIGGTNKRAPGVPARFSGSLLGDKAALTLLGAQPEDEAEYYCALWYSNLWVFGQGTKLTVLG', 'Kd', 'nM', 1.13),
  ('hzsp34.79 (antibody, human IgG1, lambda, L234A L235A, V domains shown, CDR mutant of hzsp34.24; IgG1 L234A L235A, lambda) VH: EVQLVESGGGLVQPGGSLKLSCAASGFTFNGYAMNWVRQASGKGLEWVGRIRSKYNNYATYYADSVKDRFTISRDDSKSTLYLQMNSLKTEDTAVYYCARHGNFGQSYVSWFAYWGQGTTVTVSS VL: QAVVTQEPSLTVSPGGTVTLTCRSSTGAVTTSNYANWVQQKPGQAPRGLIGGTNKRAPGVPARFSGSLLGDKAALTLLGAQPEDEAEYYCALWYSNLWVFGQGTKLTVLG', 'Kd', 'nM', 0.507);
